Tested on: RPMI-8226 leukemia
Protocol notes: NCI tumour cell line growth inhibition, 48 h
Let's look at some compounds and their measured TGI.

COc1ccc(C2=C(c3cc(OC)c(OC)c(OC)c3)C(=O)CC2)cc1 : 7 µM
COc1cc(C(C)c2cc3c(cc2OCCCCOc2cc4c(cc2C(C)c2cc(OC)c(OC)c(OC)c2)OCO4)OCO3)cc(OC)c1OC (stereo not given) : > 100 µM
COC(=O)N/N=C/c1oc(-c2ccccc2)c(-c2ccccc2)c1[N+](=O)[O-] : > 100 µM
CC(=O)OCC1OC(OC2=C(CC=C(Cl)Cl)C(=O)c3ccccc3C2=O)C(OC(C)=O)C(OC(C)=O)C1OC(C)=O (stereo not given) : 6.78 µM
CC(=O)O[C@H]1CC[C@@]2(C)C(=CC[C@@H]3[C@@H]2CC[C@]2(C)C(=N/O)/C(=C/c4ccc([N+](=O)[O-])cc4)C[C@@H]32)C1 : > 100 µM
O=C1Nc2ccccc2Nc2nc3cccccc-3c21 : > 100 µM

Ask | Consider the compound O=c1c2ccccc2nc(-c2ccccc2)n1NC(=S)Nc1ccc(Cl)cc1[N+](=O)[O-] and give its recorded TGI.
Reply | > 100 µM

Ask | Give TGI for COc1ccc(-c2cc(/C=C3\C(=O)Nc4ccc(OC)cc43)[nH]n2)cc1
Reply | > 100 µM

Ask | Supply TGI value. Item: N=C(N)n1[nH]c2c(c1=O)CCCC2
Reply | > 100 µM

Ask | Specify measured TGI for COC(=O)Nc1nc2cc3c(cc2s1)OCCO3 .
Reply | > 50 µM

Ask | Give the reported TGI for this compound. CCN(CC)C(=S)SC1CCOP(=O)(N(CCCl)CCCl)N1C (stereo not given)
Reply | > 61.2 µM

Ask | Identify measured TGI corresponding to COC(=O)[C@H](CC(C)C)NC(=O)NC(=O)NC(=O)CI
Reply | 7.75 µM

Ask | Supply TGI value. Item: O=C(OCC12CC3CC(CC(C3)C1)C2)c1ccc(NCc2cc(O)ccc2O)cc1
Reply | 1.68 µM

Ask | Dear colleague, please send me the reported TGI for COc1ccc(/C=C\c2cc(OC)c(OC)c(OC)c2)cc1OC(=O)c1cccc(Cn2cc(CCOC(=O)c3cccc(Cn4nnc5c4C(=O)c4ccccc4C5=O)c3)nn2)c1 when you can.
Reply | > 100 µM

Ask | Complete the entry with TGI for C#CCOC(=O)C(N)CSSCC(N)C(=O)O (stereo not given)
Reply | > 100 µM

----------
Tested on: SF-268 CNS
Protocol notes: NCI tumour cell line growth inhibition, 48 h
Experimental endpoint: GI50

CN(C)CCCNc1nccc(-c2c(-c3ccc(F)cc3)nn3cc(C(F)(F)F)ccc23)n1 : 9790 nM
CC1=C([Se]CC(OC(=O)[C@@H](CO)NC(=O)OC(C)(C)C)C(=O)NC(C)(C)C)C(=O)c2ccccc2C1=O (stereo not given in full) : 1890 nM
COc1ccc(-c2nn(-c3cccc(NC(=O)Nc4cc(C(F)(F)F)cc(C(F)(F)F)c4)c3)cc2-c2ccncc2)cc1Cl : 1590 nM
CCOC(=O)c1cc(C(=O)c2cc(OC)cc(OC)c2)n2ncc3ccccc3c12 : 1590 nM

Ask | Return the recorded GI50 value; entry: COc1cc2c3c(n(C)c(=O)c2cc1OC)-c1cc2c(cc1/C3=C\CCCBr)OCO2
Reply | 16100 nM

The reported measurements were obtained from PubChem BioAssay (NCI).
